assay: in vitro; conditions: human, MT4 cells, mock-infected (CC50) and HIV1 3B infected (EC50)
Description: Selectivity index, ratio of CC50 for toxicity in mock-infected human MT4 cells assessed as reduction in cell viability by MTT assay to EC50 for antiviral activity against HIV1 3B infected in human MT4 cells assessed as protection against viral-induced cytopathogenecity by MTT assay
So I've got a bunch of compounds here, and I need their selectivity ratio values.
Simply state the number, no unit and no words.

Query: Return reported selectivity ratio. Input compound: Cc1cc(C)cc(S(=O)(=O)c2c(C(=O)NCCNC(=O)c3cccc(B(O)O)c3)[nH]c3ccc(Cl)cc23)c1
Result: 517

Query: Return reported selectivity ratio. Input compound: Cc1cc(C)cc(S(=O)(=O)c2c(C(=O)NC3CCN(Cc4ccc(B(O)O)cc4)CC3)[nH]c3ccc(Cl)cc23)c1
Result: 615

Query: Return reported selectivity ratio. Input compound: Cc1cc(C)cc(S(=O)(=O)c2c(C(=O)Nc3ccc4c(c3)B(O)OC4)[nH]c3ccc(Cl)cc23)c1
Result: 457

Query: Return reported selectivity ratio. Input compound: Cc1cc(C)cc(S(=O)(=O)c2c(C(=O)NCc3cccc(B(O)O)c3)[nH]c3ccc(Cl)cc23)c1
Result: 3310

Query: Return reported selectivity ratio. Input compound: Cc1cc(C)cc(S(=O)(=O)c2c(C(N)=O)[nH]c3ccc(Cl)cc23)c1
Result: 2570

Query: Return reported selectivity ratio. Input compound: Cc1cc(C)cc(S(=O)(=O)c2c(C(=O)NCc3ccc(B(O)O)cc3)[nH]c3ccc(Cl)cc23)c1
Result: 3140

Query: Return reported selectivity ratio. Input compound: Cc1cc(C)cc(S(=O)(=O)c2c(C(=O)NCCCNC(=O)c3cccc(B(O)O)c3)[nH]c3ccc(Cl)cc23)c1
Result: 684
